target: CYP3A (Homo sapiens); assay: in vitro; settings: both, microsomes, pH 7.4, % of Control Enzyme Activity, HLM, Testosterone probe, 0.333 μM
QUANTITY NAME: activity at 10 min, 0.333 µM (%)
Give the value, in units of %, as a plain number.

Query: Given the entry CC(=O)N1CCN(c2ccc(OCC3COC(Cn4ccnc4)(c4ccc(Cl)cc4Cl)O3)cc2)CC1 (stereo not shown) [Ketoconazole, ketoconazole] , report its measured activity at 10 min, 0.333 µM.
Response: 6.75

---

target: CYP2B6 (Homo sapiens); assay: CYP inhibition in human liver microsomes; type: in vitro ADME; design: from tissue; host or cells: pooled human liver microsomes, 200 donors; details: both sexes, pooled human liver microsomes, pH 7.4, HLM, 0.370 μM, read-out: % of Control Enzyme Activity
Sequence (P20813 whole entry): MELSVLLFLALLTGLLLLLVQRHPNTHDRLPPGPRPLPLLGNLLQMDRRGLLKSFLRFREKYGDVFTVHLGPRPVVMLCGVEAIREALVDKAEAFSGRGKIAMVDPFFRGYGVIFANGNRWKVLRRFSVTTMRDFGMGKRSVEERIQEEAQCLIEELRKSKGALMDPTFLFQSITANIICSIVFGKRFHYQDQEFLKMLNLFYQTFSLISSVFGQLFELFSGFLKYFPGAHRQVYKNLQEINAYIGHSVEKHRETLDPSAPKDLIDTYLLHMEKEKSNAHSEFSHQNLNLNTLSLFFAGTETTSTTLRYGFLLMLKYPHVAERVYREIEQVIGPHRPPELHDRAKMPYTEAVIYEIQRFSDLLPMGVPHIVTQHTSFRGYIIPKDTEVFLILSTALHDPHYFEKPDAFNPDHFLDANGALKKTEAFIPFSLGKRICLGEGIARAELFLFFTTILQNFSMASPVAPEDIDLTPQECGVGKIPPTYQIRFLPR
QUANTITY NAME: activity at 20 min, 0.37 µM (%)
Return type: number; implicit unit %.

Query: Sample `S=P(N1CC1)(N1CC1)N1CC1` — what was its activity at 20 min, 0.37 µM?
Response: 97.3

---

target: CYP3A (Homo sapiens); experiment: in vitro; conditions: both, microsomes, pH 7.4, % of Control Enzyme Activity, HLM, Midazolam probe, 0.0370 μM
QUANTITY NAME: activity at 10 min, 0.037 µM
Please state the number and follow it with the unit.

Query: What measured activity at 10 min, 0.037 µM is associated with CC(=O)N1CCN(c2ccc(OCC3COC(Cn4ccnc4)(c4ccc(Cl)cc4Cl)O3)cc2)CC1 (stereo not shown) on CYP3A (Homo sapiens)?
Response: 49.9%

---

experiment: Compound 2 and metabolites in rat plasma, 50 mg/kg PO QD×10; format: in vivo; settings: Day 10; of Compound 2 AUC0-last; rat; 50 mg/kg PO QD×10
QUANTITY NAME: % of Parent (%)
Respond numerically; units are % and should not be typed.

Query: Which % of Parent value belongs to `CCn1c(C#CCNc2ccc(F)cc2)cc2cc(CNC)ccc21` ?
Response: 18.1

Query: For the compound `CCn1c(C#CCNc2ccc(Cl)cc2)cc2cc(CNC3CCN(C)CC3)ccc21` , what % of Parent is on record?
Response: 0.0

Query: Look up % of Parent: `CCn1c(C#CCNc2ccccc2)cc2cc(CNCc3ccccc3)ccc21`
Response: 1.5

Query: What does the data say about its % of Parent? Entry: `CCn1c(C#CCNc2ccc(C)nc2)cc2cc(CNC3CCOCC3)ccc21`
Response: 0.9

---

target: MATE1 (Homo sapiens, UniProt Q96FL8); assay: in vitro; details: HEK293 cells transfected with MATE1, probe metformin (50 µM)
Sequence (Q96FL8 whole entry): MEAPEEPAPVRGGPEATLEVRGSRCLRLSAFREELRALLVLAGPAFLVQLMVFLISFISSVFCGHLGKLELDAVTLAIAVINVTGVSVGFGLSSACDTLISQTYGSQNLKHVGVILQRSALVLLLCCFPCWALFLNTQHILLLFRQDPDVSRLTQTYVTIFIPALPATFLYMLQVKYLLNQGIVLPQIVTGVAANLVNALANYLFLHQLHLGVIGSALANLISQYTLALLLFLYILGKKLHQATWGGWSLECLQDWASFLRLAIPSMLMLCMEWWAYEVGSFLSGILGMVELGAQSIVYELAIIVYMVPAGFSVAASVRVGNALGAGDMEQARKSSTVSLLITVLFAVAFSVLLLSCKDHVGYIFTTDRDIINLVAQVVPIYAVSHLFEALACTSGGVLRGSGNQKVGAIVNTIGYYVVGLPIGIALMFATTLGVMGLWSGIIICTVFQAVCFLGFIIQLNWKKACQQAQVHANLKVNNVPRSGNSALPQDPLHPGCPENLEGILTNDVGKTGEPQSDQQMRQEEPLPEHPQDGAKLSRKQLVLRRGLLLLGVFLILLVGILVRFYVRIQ
QUANTITY NAME: inhibition at 100 µM
Returns: string containing the number followed by the unit.

Query: Looking for the measured inhibition at 100 µM of `CN/C(=N/CCSCc1nc[nH]c1C)NC#N` , can you help?
Response: 99.2%

---

biological target: BCRP (Homo sapiens); experiment: BCRP substrate assessment, BCRP-MDCK monolayers; type: in vitro ADME; details: dog, pH 7.4, BCRP-MDCK; Cladribine; B-to-A; read-out: Papp R1
QUANTITY NAME: Papp B→A at 120 min (×10⁻⁶ cm/s)
Use ×10⁻⁶ cm/s as the unit, but write only the number.

Query: Return reported Papp B→A at 120 min; argument: `Nc1nc(Cl)nc2c1ncn2[C@H]1C[C@H](O)[C@@H](CO)O1`
Response: 15.6

---

Target: BCRP (Homo sapiens, UniProt Q9UNQ0)
Sequence (Q9UNQ0 1-655): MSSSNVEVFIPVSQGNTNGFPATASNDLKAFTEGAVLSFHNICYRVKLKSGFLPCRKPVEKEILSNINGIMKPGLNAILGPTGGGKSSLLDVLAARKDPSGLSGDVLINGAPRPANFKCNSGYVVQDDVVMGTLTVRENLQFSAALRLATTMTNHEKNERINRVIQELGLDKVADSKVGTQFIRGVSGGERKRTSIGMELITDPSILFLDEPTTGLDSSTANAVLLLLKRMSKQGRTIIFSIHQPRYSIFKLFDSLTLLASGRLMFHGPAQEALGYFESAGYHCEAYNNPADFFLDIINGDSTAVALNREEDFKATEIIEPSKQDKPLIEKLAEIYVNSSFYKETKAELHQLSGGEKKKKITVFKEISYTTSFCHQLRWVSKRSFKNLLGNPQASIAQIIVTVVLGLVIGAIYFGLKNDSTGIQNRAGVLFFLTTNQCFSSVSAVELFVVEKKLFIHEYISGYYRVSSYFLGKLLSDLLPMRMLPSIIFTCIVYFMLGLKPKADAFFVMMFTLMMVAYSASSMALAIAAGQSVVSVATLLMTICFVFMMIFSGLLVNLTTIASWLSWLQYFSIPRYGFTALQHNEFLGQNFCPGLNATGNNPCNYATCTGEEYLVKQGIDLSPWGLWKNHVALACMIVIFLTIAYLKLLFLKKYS
Experiment: BCRP substrate assessment, Caco-2 monolayers
Format: in vitro ADME
Parameters: host or cells: Caco-2 (clone C2BBe1)
Details: human, Caco-2, pH 7.4, Caco-2; Cladribine; B-to-A; read-out: Papp AVG
QUANTITY NAME: Papp B→A at 120 min

Query: Give the measured Papp B→A at 120 min of `Nc1nc(Cl)nc2c1ncn2[C@H]1C[C@H](O)[C@@H](CO)O1` .
Response: 18.5 ×10⁻⁶ cm/s

---

target: BCRP (Homo sapiens); test: BCRP substrate assessment, Caco-2 monolayers; type: in vitro ADME; set-up: host or cells: Caco-2 (clone C2BBe1); settings: human, Caco-2, pH 7.4, Caco-2; Cladribine; A-to-B; read-out: Papp R2
QUANTITY NAME: Papp A→B at 120 min
Include the unit after the number when you answer.

Query: Reported Papp A→B at 120 min, compound Nc1nc(Cl)nc2c1ncn2[C@H]1C[C@H](O)[C@@H](CO)O1 [Cladribine, cladribine] : ____
Response: 0.478 ×10⁻⁶ cm/s

---

target: CYP2D6 (Homo sapiens, UniProt P10635); experiment: CYP inhibition in human liver microsomes; type: in vitro ADME; set-up: from tissue; host or cells: pooled human liver microsomes, 200 donors; details: both sexes, pooled human liver microsomes, pH 7.4, HLM, 0.123 μM, read-out: % of Control Enzyme Activity
Sequence (P10635 whole entry): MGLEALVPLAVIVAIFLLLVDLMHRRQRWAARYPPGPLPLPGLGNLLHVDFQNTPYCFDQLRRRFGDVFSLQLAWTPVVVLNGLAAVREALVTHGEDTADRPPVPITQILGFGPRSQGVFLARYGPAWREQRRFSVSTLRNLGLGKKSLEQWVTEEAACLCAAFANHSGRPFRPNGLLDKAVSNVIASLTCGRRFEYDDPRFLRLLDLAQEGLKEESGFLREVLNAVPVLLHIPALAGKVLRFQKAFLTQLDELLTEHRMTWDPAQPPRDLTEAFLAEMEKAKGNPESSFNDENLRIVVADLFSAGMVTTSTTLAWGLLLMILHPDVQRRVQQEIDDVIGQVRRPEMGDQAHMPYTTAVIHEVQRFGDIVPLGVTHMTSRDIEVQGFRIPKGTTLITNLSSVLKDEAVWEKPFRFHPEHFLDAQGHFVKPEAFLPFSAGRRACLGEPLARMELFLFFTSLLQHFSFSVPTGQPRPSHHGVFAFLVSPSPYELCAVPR
QUANTITY NAME: activity at 20 min, 0.123 µM (%)
# output: bare number, implied unit %

Query: For the compound shown here, `C=C[C@H]1C[N@@]2CC[C@H]1C[C@@H]2[C@@H](O)c1ccnc2ccc(OC)cc12` , give the reported activity at 20 min, 0.123 µM.
Response: 30.6

---

target: BCRP (Homo sapiens, UniProt Q9UNQ0); experiment: in vitro; details: Caco-2, pH 7.4
QUANTITY NAME: efflux ratio
// return just the number, without any unit appended

Query: Find the recorded efflux ratio belonging to Nc1nc(Cl)nc2c1ncn2[C@H]1C[C@H](O)[C@@H](CO)O1 [Cladribine, cladribine] and report it.
Response: 32

---

system: P-gp (MDR1); experiment: in vitro; details: dog, MDCK-MDR1
QUANTITY NAME: Papp B→A (×10⁻⁶ cm/s)
Express it in ×10⁻⁶ cm/s; write the number only.

Query: For `C[C@H]1O[C@@H](O[C@H]2[C@@H](O)C[C@H](O[C@H]3[C@@H](O)C[C@H](O[C@H]4CC[C@@]5(C)[C@H](CC[C@@H]6[C@@H]5C[C@@H](O)[C@]5(C)[C@@H](C7=CC(=O)OC7)CC[C@]65O)C4)O[C@@H]3C)O[C@@H]2C)C[C@H](O)[C@@H]1O` , what is its reported Papp B→A?
Response: 11

---

biological target: CYP3A (Homo sapiens, UniProt P08684); experiment: in vitro; conditions: both, microsomes, pH 7.4, % of Control Enzyme Activity, HLM, Midazolam probe, 0.0123 μM
Sequence (P08684 2-503): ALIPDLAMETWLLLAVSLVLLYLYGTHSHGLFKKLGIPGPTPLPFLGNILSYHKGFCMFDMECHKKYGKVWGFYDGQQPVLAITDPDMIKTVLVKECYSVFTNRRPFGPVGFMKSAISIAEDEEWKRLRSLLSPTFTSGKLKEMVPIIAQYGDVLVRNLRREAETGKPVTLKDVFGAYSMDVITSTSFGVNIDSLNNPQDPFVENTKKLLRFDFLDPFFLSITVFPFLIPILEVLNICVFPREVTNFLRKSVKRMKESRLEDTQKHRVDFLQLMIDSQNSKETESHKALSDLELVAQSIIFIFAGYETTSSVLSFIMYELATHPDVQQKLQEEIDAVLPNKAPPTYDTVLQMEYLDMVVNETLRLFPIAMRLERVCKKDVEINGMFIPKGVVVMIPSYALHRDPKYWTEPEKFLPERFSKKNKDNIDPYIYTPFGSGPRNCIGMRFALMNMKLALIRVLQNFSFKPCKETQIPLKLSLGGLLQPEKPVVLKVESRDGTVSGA
QUANTITY NAME: activity at 10 min, 0.0123 µM (%)
Please give a number only; it is taken to be in %.

Query: Param item = CC(=O)N1CCN(c2ccc(OCC3COC(Cn4ccnc4)(c4ccc(Cl)cc4Cl)O3)cc2)CC1 (stereo not shown) [Ketoconazole, ketoconazole] ; retrieve measured activity at 10 min, 0.0123 µM.
Response: 74.5

---

molecular target: BCRP (Homo sapiens, UniProt Q9UNQ0); experiment: BCRP substrate assessment, BCRP-MDCK monolayers; format: in vitro ADME; conditions: dog, pH 7.4, BCRP-MDCK; Cladribine; A-to-B
QUANTITY NAME: recovery at 120 min (%)
State just the number; it will be interpreted in %.

Query: Field request: recovery at 120 min | item: Nc1nc(Cl)nc2c1ncn2[C@H]1C[C@H](O)[C@@H](CO)O1 [Cladribine, cladribine]
Response: 91.3

---

tested on: BCRP; assay: cell batch quality control, BCRP-MDCK monolayers; assay type: in vitro ADME; details: dog; BCRP-MDCK cell batch QC; passage 23
QUANTITY NAME: Papp A→B (×10⁻⁶ cm/s)
Kindly provide the numeric value in ×10⁻⁶ cm/s only, without the unit symbol.

Query: // Papp A→B lookup, key: Nc1nc(Cl)nc2c1ncn2[C@H]1C[C@H](O)[C@@H](CO)O1 [Cladribine, cladribine]
Response: 0.136

Measured values drawn from patent US20230049952A1 for this set.
